ASSAY INFO: MM1S cell viability effects, profiling panel, calcein-AM fluorescence, 48 h, basal (AID 1165);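 also: viability of MM1S multiple myeloma cells under basal unstimulated conditions; test concentration not given here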
REPORTED CONDITIONS: higher = more signal
RECORDED METRIC: z-score
Write the value as a bare number.

Reported z-score for COC(=O)[C@@]1(Cc2ccccc2)[C@H]2c3cc(C(=O)N4CCCC4)n(Cc4cccc5ccccc45)c3C[C@H]2CN1C(=O)c1ccccc1 : what is it?
-1.42

// same read-out, input: CCCCN1CC=CC23O[C@@H]4C=CCOC(=O)[C@@H]4[C@H]2C(=O)N(CCCCCO)[C@@H]3C1=O (some centres undefined)
0.276

// same read-out, input: COCCCN1C(=O)[C@@]2(Cc3ccccc31)c1ccccc1C(=O)N(Cc1ccccc1C(F)(F)F)[C@H]2c1ccc(CO)cc1
-0.155

// same read-out, input: C=CCC(OC(C)=O)[C@@H]1[C@@H](N(Cc2ccc(-c3cccc(C(F)(F)F)c3)o2)C(=O)Cc2ccc(F)cc2)c2cc(OCCCO)ccc2N1C(=O)Cc1ccc(OC)cc1 (some centres undefined)
-0.394

* * *

ASSAY INFO: A549 cell viability effects, profiling panel, calcein-AM fluorescence, 48 h, basal (AID 1162); also: test concentration not given here
REPORTED CONDITIONS: higher = more signal
Field: z-score. Provide a value for each of the compounds that follow.
Write the value as a bare number.

Reported z-score for CN(C)C(=O)[C@@]1(Cc2ccccc2)N=C(c2ccc(OCCCO)cc2)O[C@H]1c1ccccc1N=[N+]=[N-] : what is it?
-1.45

// same read-out, input: O=C1O[C@H](c2ccccc2)[C@H](c2ccccc2)N2[C@H]1[C@@H](C(=O)N1CCN(c3ncccn3)CC1)[C@]1(C(=O)Nc3ccc(C#CC4=CCCCC4)cc31)[C@H]2c1ccc(O)cc1
0.645

// same read-out, input: COc1ccc([Si](C)(C)[C@H]2[C@H](CCO)O[C@@]3(C(=O)N(C)c4c(Br)cc(C)cc43)[C@@H]2C)cc1
-4.21

* * *

Test system: wheat germ agglutinin (Triticum aestivum), Alexa647-labelled
ASSAY INFO: wheat germ agglutinin binders on compound microarrays, profiling panel, artefact control for SMM control-protein annotation, biochemical, small-molecule microarray, 635/667 nm fluorescence (AID 1140);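 also: score merges 667 nm feature emission with signal to noise over triplicate slides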
REPORTED CONDITIONS: WGA-A647 binding, 635 nm fluorescence, higher = more signal
Field: composite z-score. Provide a value for each of the molecules that follow.
Write the value as a bare number.

Reported composite z-score for [N-]=[N+]=Nc1ccccc1[C@H]1OC(c2ccc(OCCCO)cc2)=N[C@@]1(Cc1ccccc1)C(=O)O : what is it?
0.611

// same read-out, input: COCCOC(=O)N1C(=O)[C@@]2(c3cc(C#CC4(O)CCCCCC4)ccc31)[C@H](c1ccc(O)cc1)N1[C@H](c3ccccc3)[C@H](c3ccccc3)OC(=O)[C@H]1[C@@H]2C(=O)Nc1nc2ccccc2s1
0.227

// same read-out, input: [N-]=[N+]=NCc1ccccc1C[C@]1(C(=O)O)N=C(c2ccc(OCCCO)cc2)O[C@H]1c1ccccc1N=[N+]=[N-]
1.2

// same read-out, input: CCCCC(=C=CC[C@@H](O)c1ccccc1OCCO)CCO
0.177

// same read-out, input: CCOC(=O)C1=CCC(c2ccc(C)cc2)N(S(=O)(=O)c2ccc(C)cc2)C1 (stereo unspecified)
0.396

// same read-out, input: O=C(C1N=C(c2ccc(OCCCO)cc2)N(c2ccccc2)O1)N1CCOCC1 (stereo unspecified)
0.388

// same read-out, input: CCOC(=O)[C@H]1C/C=C/C[C@H](C(=O)OCC)C(=O)O[C@H]2[C@@H](OC)O[C@H](CO)[C@@H](OC(=O)Nc3ccc(C#N)cc3)[C@@H]2OC1=O
0.852

// same read-out, input: O=C1OCC=C[C@H]2OC34C=CCN(CCN5CCOCC5)C(=O)[C@H]3N(CCCO)C(=O)[C@@H]4[C@@H]12 (stereo partly specified)
0.114

// same read-out, input: O=C1OCC=C[C@H]2OC34C=CCN(c5ccc6ccccc6c5)C(=O)[C@H]3N(CCCCCCO)C(=O)[C@@H]4[C@@H]12 (stereo partly specified)
-0.434

// same read-out, input: COc1ccc(CCNC(=O)[C@@H]2c3ccccc3C(=O)N(C3Cc4ccccc4C3)[C@H]2c2ccc(CO)cc2)cc1
0.645

// same read-out, input: CC(C)(C)OC(=O)CC[C@@]1(C(N)=O)N=C(c2ccc(OCCCO)cc2)O[C@@H]1c1ccccc1
0.178

// same read-out, input: CCC(CC)C(O)C1C=CC2C(=O)N(C)C(=O)C2N1Nc1ccccc1 (stereo unspecified)
1.1

// same read-out, input: O=C1C[C@]2(c3ccc([N+](=O)[O-])cc3)C(=O)N(CCN3CCOCC3)c3cc(CO)ccc3[C@H]2N1C1CCCCC1
0.409

// same read-out, input: CCOC(=O)C[C@H]1[C@H](OC(=O)Cc2ccc3c(c2)OCO3)[C@@H](NC(=O)c2ccc3ccccc3c2)c2cc(OCCCO)ccc2N1C(=O)c1ccccc1
0.271

// same read-out, input: C=CC[C@@]1(C(=O)NCc2ccccc2)N=C(c2ccc(OCCCO)cc2)O[C@@H]1c1ccccc1N=[N+]=[N-]
1

// same read-out, input: CCOC(=O)C[C@H]1[C@H](OC(=O)c2cc3ccccc3oc2=O)[C@@H](NC(=O)C2CCCCC2)c2cc(OCCCO)ccc2N1C(=O)c1ccccc1
0.667

// same read-out, input: COc1ccc(C(=O)Nc2cccc(CN3C(=O)[C@]4(O[C@H](CCO)[C@@H]([Si](C)(C)c5ccc(OC)cc5)[C@@H]4C)c4ccccc43)c2)cc1
0.32

// same read-out, input: O=C(NCc1ccc(F)cc1)[C@H]1C[C@H]2C(=O)N[C@@H](Cc3ccccc3)C(=O)N2[C@H]1c1ccc(O)cc1
-0.262

// same read-out, input: O=C1O[C@H](c2ccccc2)[C@H](c2ccccc2)N2[C@H]1[C@@H](C(=O)O)[C@]1(C(=O)Nc3ccc(C#CCCO)cc31)[C@H]2c1ccc(O)cc1
0.349

// same read-out, input: C=C(CCCC)C(=O)CC[C@@H](OC(=O)c1cccnc1)c1ccc(CO)o1
0.828

// same read-out, input: O=C1O[C@H](c2ccccc2)[C@H](c2ccccc2)N2[C@H]1[C@@H](C(=O)O)[C@]1(C(=O)Nc3ccc(C#CC4=CCCCC4)cc31)[C@H]2c1ccccc1OCCO
1.18

// same read-out, input: COC(=O)[C@@]1(Cc2ccc(OC)cc2)[C@H]2c3cc(C(=O)N4CCCC4)n(Cc4ccccc4)c3C[C@H]2CN1C(=O)c1ccccc1
1.1

// same read-out, input: CCOC(=O)C1=CCC(c2ccccc2)N(S(=O)(=O)CC[Si](C)(C)C)C1 (stereo unspecified)
0.0225

// same read-out, input: COCCOC(=O)N1C(=O)[C@@]2(c3cc(C#CCCO)ccc31)[C@H](C(=O)N1CCN(c3ncccn3)CC1)[C@H]1C(=O)O[C@H](c3ccccc3)[C@H](c3ccccc3)N1[C@@H]2c1ccccc1OCCO
1.04

// same read-out, input: COc1cc2c(cc1OC)CN(C(=O)[C@H]1[C@@H]3C(=O)O[C@@H](c4ccccc4)[C@@H](c4ccccc4)N3[C@@H](c3ccc(O)cc3)[C@]13C(=O)Nc1ccc(C#CC4=CCCCC4)cc13)CC2
1.12

// same read-out, input: O=C1OCCC/C=C\[C@H]2OC34C=CCN(CCN5CCOCC5)C(=O)[C@H]3N(CCCO)C(=O)[C@@H]4C12 (stereo partly specified)
0.023

* * *

ASSAY INFO: small-molecule microarray binders of probe aXIP, primary screen, biochemical, NeuroSMM set, 635/667 nm fluorescence (AID 1119);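 also: probe is the protein aXip251-270 applied at 1 µg/mL to compound-printed slides; binding of probe to printed compounds measured as 667 nm fluorescence plus signal to noise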
REPORTED CONDITIONS: higher = more signal, called active from +8 up or from −8 down
RECORDED METRIC: composite Z-score
Write the value as a bare number.

Reported composite Z-score for COc1ccc(C(=O)O[C@H]2CC[C@]3(C)C4=C(CCC3C2(C)C)[C@]2(C)CC[C@H]([C@H](C)CCCC(C)C)[C@@]2(C)CC4)cc1 (stereo not given in full) : what is it?
-0.482

// same read-out, input: CC(C)C[C@@H]1NC(=O)[C@H]2C[C@@H](C(=O)NCCCCCCN(C)C)[C@@H](c3ccc(O)cc3)N2C1=O
0.531

// same read-out, input: COC(=O)[C@@]1(Cc2ccc(F)cc2)[C@H]2c3cc(C(=O)N(C)C)n(Cc4ccc(S(C)(=O)=O)cc4)c3C[C@H]2CN1C(=O)c1ccccc1
0.542

// same read-out, input: C=C[C@H](COC(C)=O)N(C(=O)OC(C)(C)C)S(=O)(=O)c1ccc(Br)cc1
-0.526

// same read-out, input: Cc1ccc(S[C@]2(C(=O)NCCN3CCOCC3)CC(=O)N(Cc3ccccc3Cl)[C@@H]2c2ccc(CO)cc2)cc1
-0.0407

// same read-out, input: COCCCNC(=O)C1N=C(c2ccc(OCCCO)cc2)N(c2ccccc2)O1 (stereo not given)
-0.442

// same read-out, input: COC(=O)[C@@]1(Cc2ccccc2)[C@H]2c3cc(C(=O)N4CCCC4)n(CC4CC4)c3C[C@H]2CN1C(=O)c1ccccc1
1.02

// same read-out, input: O=C1O[C@H](c2ccccc2)[C@H](c2ccccc2)N2[C@H]1[C@@H](C(=O)O)[C@]1(C(=O)Nc3ccc(C#CC4=CCCCC4)cc31)[C@H]2c1ccccc1OCCO
0.685

// same read-out, input: C=CC[C@]1(C(=O)N2CCCCC2)N=C(c2ccc(OCCCO)cc2)O[C@H]1c1ccccc1
0.458

// same read-out, input: [N-]=[N+]=NCc1ccccc1C[C@@]1(C(=O)NCC(O)CO)N=C(c2ccc(OCCCO)cc2)O[C@@H]1c1ccccc1N=[N+]=[N-] (stereo not given in full)
1.26

// same read-out, input: CCOC1=C2C(CN(S(=O)(=O)c3ccc(C)cc3)C2c2ccc(C)cc2)C2C(=O)N(c3ccccc3)C(=O)C2C1 (stereo not given)
0.0045

// same read-out, input: CC(C)c1ccc(NN2C(C(O)c3cc(C(F)(F)F)cc(C(F)(F)F)c3)C=CC3C(=O)N(c4ccccc4)C(=O)C32)cc1 (stereo not given)
-0.117

// same read-out, input: O=C1O[C@H](c2ccccc2)[C@H](c2ccccc2)N2[C@H]1[C@@H](C(=O)N1CCN(c3ncccn3)CC1)[C@]1(C(=O)Nc3ccc(C#CC4=CCCCC4)cc31)[C@H]2c1ccc(O)cc1
-0.239

// same read-out, input: CN1C(=O)[C@]2(Cc3ccccc3)N=C(c3ccc(OCCCO)cc3)O[C@@H]2c2ccccc21
0.307

// same read-out, input: C=CC[C@]12N=C(c3ccc(OCCCO)cc3)O[C@H]1c1ccccc1N(Cc1ccccc1)C2=O
1.2
